# System: HeLa cells
# testDetails: Compound screen by flow cytometry: HeLa cell count as surrogate readout of cell viability (z-scoreHeLa); note: test concentration or dose not given here
# Format: cell-based, human
# experimentalParameters: PKIS compound screen, HeLa cell count, replicate 3
Classification field: 1.0 = z-scoreHeLa rep 3 at or over -0.2; 0.0 = z-scoreHeLa rep 3 under -0.2.

- COC(=O)Nc1nc2ccc(Oc3ccc(NC(=O)Nc4cc(C(F)(F)F)ccc4F)cc3)cc2n1C [GW692089A]: 1.0
- COc1cc(Nc2nccc(N3CCC(NC(=O)Nc4ccc5c(c4)OCO5)C3)n2)cc(OC)c1OC (centres unmarked) [GSK1379766A]: 0.0
- c1ccc(Oc2ccc(Nc3ccnc4cc(-c5ccc(CNCCN6CCOCC6)o5)ccc34)cc2)nc1 [GW567145X]: 0.0
- Cc1cc(NCC(c2ccccc2)c2ccccc2)nc(NCc2ccc(C(F)(F)F)cc2)n1 [GW497681X]: 0.0
- Fc1cc(Cl)ccc1Nc1ccnc2cc(-c3ccc(CN4CCOCC4)o3)ccc12 [GW560109X]: 1.0
- COc1ccc(COc2ccc(Cc3cnc(N)nc3N)cc2OC)cc1 [GW632580X]: 1.0
- [O-][S+]1CCN(Cc2ccc(-c3ccc4ncnc(Nc5ccc(OCc6cccc(F)c6)c(Cl)c5)c4c3)o2)CC1 [GW576609A]: 1.0
- COc1cc2nccc(Nc3cccc(Oc4ccccc4)c3)c2cc1OC [GW284543A]: 1.0

====

# System: HeLa cells
# testDetails: Compound screen by flow cytometry: HeLa cell count as surrogate readout of cell viability (z-scoreHeLa); note: test concentration or dose not given here
# Assay type: cell-based, human
# experimentalParameters: PKIS compound screen, mean of 3 replicates
measuredAttribute: z-scoreHeLa mean

* CN(C)c1cc2c(Nc3ccc4nc(Cc5ccccc5)[nH]c4c3)ncnc2cn1 [GW301888X] | 0.66
* COc1ccc2ncnc(Nc3ccc(OCc4ccccc4)cc3)c2c1 [GI261520A] | 1.78
* c1ccc(-c2ccc3c(Nc4ccc5[nH]ccc5c4)ccnc3c2)nc1 [GW440138A] | 1.19
* CCCN(CCS(C)(=O)=O)Cc1ccc(-c2ccc3ncnc(Nc4ccc(OCc5cccc(F)c5)c(Cl)c4)c3c2)o1 [GW621823A] | 0.59

====

# Tested on: HeLa cells
# testDetails: Compound screen by flow cytometry: HeLa cell count as surrogate readout of cell viability (z-scoreHeLa); note: test concentration or dose not given here
# Format: cell-based, human
# experimentalParameters: compound screen, HeLa cell count, replicate 2
Known z-scoreHeLa rep 2 of a selection of compounds
measuredAttribute: z-scoreHeLa rep 2

- Fc1cc(Cl)ccc1Nc1ccnc2cc(I)ccc12 [GW551191X]: 0.42
- COc1ccc(Nc2nccc(-c3ccc(NC(=O)c4cc5cc(F)ccc5[nH]4)cc3)n2)cc1 [GSK1229496A]: -0.48
- CNc1nc(-c2ccc3c(N)n[nH]c3c2)cc(N2C[C@@H](C(=O)NC3CCCCC3)OC[C@H]2C)n1 [GSK2375584A]: 0.65
- Cc1cc(N2Cc3ccccc3C2)nc(Nc2ccc(S(=O)(=O)N3CCOCC3)cc2)n1 [GSK1669917A]: 0.20
- Cc1cccc(-c2nc(Nc3ccncc3)c3ccccc3n2)n1 [GW855857X]: -1.00
- Cc1cc(N2CCC(NS(=O)(=O)c3ccc(F)cc3)CC2)nc(Nc2cccc(C#N)c2)n1 [GSK1653537A]: 0.29
- COc1cc(Nc2ccnc3ccc(C(F)(F)F)cc23)cc(OC)c1OC [GW577382X]: -1.51
- Nc1nc(-c2ccc3c(c2)C(=Cc2cc(Br)c(O)c(Br)c2)C(=O)N3)cs1 [GW407323A]: 1.20
- CS(=O)(=O)Cc1ccc(Nc2nccc(-c3c(-c4cccc(NC(=O)C5CCCCC5)c4)nn4ncccc34)n2)cc1 [GSK350559A]: -0.15
- CS(=O)(=O)CCNCc1nc(-c2ccc3ncnc(Nc4ccc(OCc5cccc(F)c5)c(Cl)c4)c3c2)cs1 [GW583340C]: 0.93
- Oc1ccc2ncnc(Nc3ccc(OCc4ccccc4)cc3)c2c1 [GI262866A]: 0.46
- Fc1cccc(COc2ccc(Nc3ncnc4cc(-c5ccc[nH]5)sc34)cc2Cl)c1 [GW693881A]: 0.23
- COC(=O)Nc1nc2ccc(Oc3ccc(NC(=O)Nc4cc(C(F)(F)F)ccc4F)cn3)cc2[nH]1 [GW681170A]: 0.49
- CN(c1ccc(NC(=O)Nc2cccc(Cl)c2)cc1)c1ccnc(N)n1 [GW830707A]: -1.13
- Cc1cccc(-c2nc(Nc3ccc4c(cnn4C)c3)c3ccccc3n2)n1 [GW876731X]: 0.32
- Cc1ccc2c(c1)C(=NNc1ccc(S(N)(=O)=O)cc1)C(=O)N2 [GW275944X]: 0.11
- COc1ccccc1-c1cc(/C=C2\C(=O)Nc3ncc(Br)cc32)cc(Br)c1O [GW442130X]: 0.35
